ASSAY METHOD TEXT: Cytotoxicity (CC50) in macrophages
Type: cell-based
STUDY CONDITIONS: mouse
OBSERVED PROPERTY: CC50

molecule="O=c1cc(-c2ccc(O)c(O)c2)oc2cc(O)cc(O)c12 [Compound 9, luteolin]" recorded_result="> 50 µM"

----------
Tested on: NO production in LPS-activated RAW 264.7 cells
ASSAY METHOD TEXT: Nitric oxide production assay in LPS-activated RAW 264.7 cells
Assay type: cell-based
STUDY CONDITIONS: Mus musculus, RAW264.7; LPS (1 μg/ml) activated RAW 264.7 cells, 24 h; read-out: IC50 (50% inhibitory concentration), LPS-induced NO production
pIC50: −log10 of the molar value.
Below: a set of entries, each annotated with reported pIC50.
OBSERVED PROPERTY: pIC50

compound="COC(=O)[C@H](Cc1ccc(O)c(O)c1)OC(=O)/C=C/c1ccc(O)c2oc(-c3ccc(O)c(O)c3)cc12 [Compound 25, methyl salvianol acid C]" target_under_test="NO production in LPS-activated RAW 264.7 cells" recorded_result=4.52
compound="O=c1cc(-c2ccc(O)c(O)c2)oc2cc(O)cc(O)c12 [Compound 9, luteolin]" target_under_test="NO production in LPS-activated RAW 264.7 cells" recorded_result=4.64
compound="COC(=O)[C@H]1Oc2ccc(/C=C/C(=O)O/C=C\\c3ccc(O)c(O)c3)cc2O[C@H]1c1ccc(O)c(O)c1 [Compound 22, hyprhombins A]" target_under_test="NO production in LPS-activated RAW 264.7 cells" recorded_result=4.69
compound="COC(=O)C[C@@H](OC(=O)/C=C/c1ccc(O)c(O)c1)c1ccc(O)c(O)c1 [Compound 23]" target_under_test="NO production in LPS-activated RAW 264.7 cells" recorded_result=4.56

The measurements presented in this section are drawn from paper PMC11063020.
